Tested on: leukemia cell line (HL-60)
Assay: Differentiation inducing effect, NBT reduction method
Assay type: cell-based, human
Conditions: 1 μM compound, 3 days
Would you mind sorting the entries by % of Differentiation according to these classes? low band: < 10%; middle band: ≥ 10% and < 30%; high band: ≥ 30%

                               input_smiles               target_entity   class_name
0  Cc1cc(C)c2c(c1)C(=C1Nc3ccccc3C1=O)C(=O)N2  leukemia cell line (HL-60)     low band
1          O=C1Nc2ccccc2C1=C1Nc2ccccc2C1=NO  leukemia cell line (HL-60)  middle band
2  Cc1cc(C)c2c(c1)C(=C1Nc3ccccc3C1=NO)C(=O)N2  leukemia cell line (HL-60)     low band
3    Cc1ccc2c(c1)C(=C1Nc3ccccc3C1=O)C(=O)N2  leukemia cell line (HL-60)  middle band
4        O=C1Nc2ccc(F)cc2C1=C1Nc2ccccc2C1=O  leukemia cell line (HL-60)     low band
5       O=C1Nc2ccc(F)cc2C1=C1Nc2ccccc2C1=NO  leukemia cell line (HL-60)    high band
6  O=C1Nc2ccc(S(=O)(=O)[O-])cc2C1=C1Nc2ccccc2C1=NO.[Na+]  leukemia cell line (HL-60)  middle band
7      O=C1Nc2ccc(Cl)cc2C1=C1Nc2ccccc2C1=NO  leukemia cell line (HL-60)    high band
8  O=C1Nc2ccc(OC(F)(F)F)cc2C1=C1Nc2ccccc2C1=NO  leukemia cell line (HL-60)  middle band
9       O=C1Nc2ccc(Cl)cc2C1=C1Nc2ccccc2C1=O  leukemia cell line (HL-60)  middle band

Which of the defined bands does the recorded % of Differentiation of O=C1Nc2ccc([N+](=O)[O-])cc2C1=C1Nc2ccc(Br)cc2C1=O sit within? middle band

Which of the defined bands does the recorded % of Differentiation of O=C1Nc2ccccc2C1=C1Nc2ccc(Br)cc2C1=O sit within? middle band

Which of the defined bands does the recorded % of Differentiation of O=C1Nc2ccc(OC(F)(F)F)cc2C1=C1Nc2ccccc2C1=O sit within? low band

----------
Test system: human colon cancer cell line (Col2)
Experiment: Inhibition of cancer cell line proliferation, Col2
Format: cell-based
Conditions: 96 h, 3˜4 days incubation, absorbance at 515 nm
This listing pairs compounds with measured IC50.

                                   compound  measured_metric  endpoint_result
0   Cc1cc(Cl)cc2c1NC(=O)C2=C1Nc2ccccc2C1=NO             IC50         > 100 µM
1   Cc1ccc2c(c1)C(=C1Nc3ccccc3C1=NO)C(=O)N2             IC50         > 100 µM
2  O=C1Nc2ccc([N+](=O)[O-])cc2C1=C1Nc2ccc(Br)cc2C1=NO             IC50          44.2 µM
3    Cc1ccc2c(c1)C(=C1Nc3ccccc3C1=O)C(=O)N2             IC50         > 100 µM
4   Nc1ccc2c(c1)C(=C1Nc3ccccc3C1=NO)C(=O)N2             IC50          24.6 µM

Please tell me: IC50 of O=C1Nc2ccc([N+](=O)[O-])cc2C1=C1Nc2ccccc2C1=NO , system human colon cancer cell line (Col2)? 25.5 µM

Please tell me: IC50 of O=C1Nc2ccccc2C1=C1Nc2ccc(Br)cc2C1=NO , system human colon cancer cell line (Col2)? 10.5 µM

Please tell me: IC50 of Cc1cc(Cl)cc2c1NC(=O)C2=C1Nc2ccccc2C1=O , system human colon cancer cell line (Col2)? > 100 µM

Please tell me: IC50 of Cc1cc(C)c2c(c1)C(=C1Nc3ccccc3C1=NO)C(=O)N2 , system human colon cancer cell line (Col2)? > 100 µM

Please tell me: IC50 of Nc1ccc2c(c1)C(=C1Nc3ccccc3C1=O)C(=O)N2 , system human colon cancer cell line (Col2)? 31.2 µM

Please tell me: IC50 of CC(=O)N1C(=C2C(=O)Nc3ccccc32)C(=O)c2ccccc21 , system human colon cancer cell line (Col2)? > 100 µM

----------
Tested on: leukemia cell line (HL-60)
Test: Differentiation inducing effect, NBT reduction method
Type: cell-based, human
Conditions: 1 μM compound, 3 days
measured.metric: % of Differentiation

>>> print(df.to_string())
                                   compound  endpoint_result
0   Cc1cc(Cl)cc2c1NC(=O)C2=C1Nc2ccccc2C1=NO     8.37 ± 0.45%
1  O=C1Nc2ccc(S(=O)(=O)[O-])cc2C1=C1Nc2ccccc2C1=O.[Na+]     9.36 ± 0.13%
2  O=C1Nc2ccc([N+](=O)[O-])cc2C1=C1Nc2ccccc2C1=O    19.94 ± 2.02%
3    Nc1ccc2c(c1)C(=C1Nc3ccccc3C1=O)C(=O)N2    45.05 ± 0.59%
4      O=C1Nc2ccccc2C1=C1Nc2ccc(Br)cc2C1=NO     8.69 ± 4.95%
5  O=C1Nc2ccccc2C1=C1Nc2ccccc2C1=O [AGM001, 1H,1′H-[2,3′] biindolylidene-3,2′-dione]     7.76 ± 3.42%

Look up % of Differentiation for this compound: CC(=O)N1C(=C2C(=O)Nc3ccccc32)C(=O)c2ccccc21 9.99 ± 1.47%

Look up % of Differentiation for this compound: Cc1cc(Cl)cc2c1NC(=O)C2=C1Nc2ccccc2C1=O 8.85 ± 2.20%

Look up % of Differentiation for this compound: O=C1Nc2ccccc2/C1=C1/Nc2ccccc2C1=O 15.28 ± 1.12%

Look up % of Differentiation for this compound: Cc1ccc2c(c1)C(=C1Nc3ccccc3C1=NO)C(=O)N2 26.22 ± 2.04%

----------
System: human lung cancer cell line (A549)
Experiment: Inhibition of cancer cell line proliferation, A549
Format: cell-based
Settings: 96 h, 3˜4 days incubation, absorbance at 515 nm
measured.metric: pIC50
Scale explanation: pIC50 corresponds to minus log10 of a concentration expressed in moles per litre.

Answered cases to consult:
>>> df
                                   compound                       target_entity  endpoint_result
0  O=C1Nc2ccccc2C1=C1Nc2ccc(Br)cc2C1=NO [AGM018]  human lung cancer cell line (A549)             4.41
1  Cc1ccc2c(c1)C(=C1Nc3ccccc3C1=NO)C(=O)N2 [AGM013]  human lung cancer cell line (A549)             4.69
2  O=C1Nc2ccc(F)cc2C1=C1Nc2ccccc2C1=NO [AGM012]  human lung cancer cell line (A549)             4.88
3  O=C1Nc2ccc([N+](=O)[O-])cc2C1=C1Nc2ccc(Br)cc2C1=NO [AGM023]  human lung cancer cell line (A549)             4.63
4  O=C1Nc2ccccc2C1=C1Nc2ccccc2C1=O [AGM001, 1H,1′H-[2,3′] biindolylidene-3,2′-dione]  human lung cancer cell line (A549)             4.51

Look up pIC50 for this compound: O=C1Nc2ccccc2C1=C1Nc2ccccc2C1=NO [AGM002] 4.21

Look up pIC50 for this compound: Nc1ccc2c(c1)C(=C1Nc3ccccc3C1=NO)C(=O)N2 [AGM031] 5.04

----------
Tested on: human cell line (HT 1080)
Assay: Inhibition of cancer cell line proliferation, HT 1080
Assay type: cell-based
Settings: HT-1080, 96 h, read-out: IC50 HT108
pIC50: −log10 of the molar value.
This listing pairs molecules with measured pIC50.

                                   molecule  endpoint_result
0  Nc1ccc2c(c1)C(=C1Nc3ccccc3C1=O)C(=O)N2 [AGM029]             5.27
1  Cc1cc(C)c2c(c1)C(=C1Nc3ccccc3C1=O)C(=O)N2 [AGM027]           < 4.00
2  Cc1ccc2c(c1)C(=C1Nc3ccccc3C1=O)C(=O)N2 [AGM024]           < 4.00
3  O=C1Nc2ccc(F)cc2C1=C1Nc2ccccc2C1=O [AGM010]           < 4.00
4  Cc1cc(Cl)cc2c1NC(=O)C2=C1Nc2ccccc2C1=O [AGM028]           < 4.00
5  Cc1cc(Cl)cc2c1NC(=O)C2=C1Nc2ccccc2C1=NO [AGM017]           < 4.00

Look up pIC50 for this molecule: Nc1ccc2c(c1)C(=C1Nc3ccccc3C1=NO)C(=O)N2 [AGM031] 5.29

----------
This listing pairs compounds with measured IC50.
Test system: human lung cancer cell line (A549)
Experiment: Inhibition of cancer cell line proliferation, A549
Assay type: cell-based
Conditions: 96 h, 3˜4 days incubation, absorbance at 515 nm

Answered cases to consult:
In [3]: df
Out[3]:
                               input_smiles  measured_metric  endpoint_result
0  CC(=O)N1C(=C2C(=O)Nc3ccccc32)C(=O)c2ccccc21             IC50         > 100 µM
1      O=C1Nc2ccc(Cl)cc2C1=C1Nc2ccccc2C1=NO             IC50          12.1 µM
2    Nc1ccc2c(c1)C(=C1Nc3ccccc3C1=O)C(=O)N2             IC50          33.2 µM
3    Cc1cc(Cl)cc2c1NC(=O)C2=C1Nc2ccccc2C1=O             IC50         > 100 µM
4  Cc1cc(C)c2c(c1)C(=C1Nc3ccccc3C1=O)C(=O)N2             IC50         > 100 µM
5       O=C1Nc2ccc(I)cc2C1=C1Nc2ccccc2C1=NO             IC50         > 100 µM

Please tell me: IC50 of O=C1Nc2ccc([N+](=O)[O-])cc2C1=C1Nc2ccccc2C1=NO , system human lung cancer cell line (A549)? 5.43 µM

Please tell me: IC50 of O=C1Nc2ccc(F)cc2C1=C1Nc2ccccc2C1=O , system human lung cancer cell line (A549)? 96.8 µM

Please tell me: IC50 of Cc1cc(C)c2c(c1)C(=C1Nc3ccccc3C1=NO)C(=O)N2 , system human lung cancer cell line (A549)? > 100 µM

Please tell me: IC50 of Cc1cc(Cl)cc2c1NC(=O)C2=C1Nc2ccccc2C1=NO , system human lung cancer cell line (A549)? > 100 µM

Please tell me: IC50 of O=C1Nc2ccc([N+](=O)[O-])cc2C1=C1Nc2ccccc2C1=O , system human lung cancer cell line (A549)? > 100 µM

Please tell me: IC50 of O=C1Nc2ccccc2C1=C1Nc2ccc(Br)cc2C1=O , system human lung cancer cell line (A549)? > 100 µM
